biological target: BaF3 (T315I mutant) (Homo sapiens, UniProt P00519, T315I, cells depend on it); test: WST (CCK-8) anti-proliferative assay, BaF3 T315I mutant; settings: read-out: BaF3 (T315I mutant), 72 h treatment, CCK-8 readout OD 450 nm
Measured GI50 determines class: low (below 60 nM), mid (60 nM to below 100 nM), high (100 nM or more)

Enquiry: Sort CC(C)N1c2c(-c3ccn[nH]3)cc(C(=O)Nc3ccc(OC(F)(F)Cl)cc3)cc2C2CCC(Nc3cnccn3)C21 (stereo not drawn) into one of the categories.
Return: high

Enquiry: Another molecule: "CC(=O)N[C@@H]1CC[C@H]2c3cc(C(=O)Nc4ccc(OC(F)(F)Cl)cc4)cc(-c4cncc(Cl)c4)c3N(C(C)C)[C@@H]12"
Return: low

Enquiry: What do you get for "CC(=O)N[C@@H]1CC[C@H]2c3cc(C(=O)Nc4ccc(OC(F)(F)Cl)cc4)cc(-c4cccnc4)c3N(C(C)C)[C@@H]12" ?
Return: low

Enquiry: Then this molecule: CC(C)N1c2c(-c3ccn[nH]3)cc(C(=O)Nc3ccc(OC(F)(F)Cl)cc3)cc2C2CCC(N3CCCCC3=O)C21 (stereo not drawn)
Return: mid

Enquiry: Lookup COCCS(=O)(=O)NC1CCC2c3cc(C(=O)Nc4ccc(OC(F)(F)Cl)cc4)cc(-c4ccn[nH]4)c3N(C(C)C)C12 (stereo not drawn)
Return: high

Enquiry: Follow-up entry: CC(C)N1c2c(-c3ccn[nH]3)cc(C(=O)Nc3ccc(OC(F)(F)Cl)cc3)cc2C2CCC(NS(C)(=O)=O)C21 (stereo not drawn)
Return: high

Enquiry: Same thing, different molecule: COC(C)(C)CN1c2c(-c3ccn[nH]3)cc(C(=O)Nc3ccc(OC(F)(F)Cl)cc3)cc2C2CCC(NC(C)=O)C21 (stereo not drawn)
Return: low

Enquiry: Another molecule: CC(C)N1c2c(-c3ccn[nH]3)cc(C(=O)Nc3ccc(OC(F)(F)Cl)cc3)cc2C2CCC(NS(=O)(=O)C3CCOCC3)C21 (stereo not drawn)
Return: high

Enquiry: Please give the result for "CC(=O)N[C@@H]1CC[C@H]2c3cc(C(=O)Nc4ccc(OC(F)(F)Cl)cc4)cc(-c4cnccn4)c3N(CC(C)(C)C)[C@@H]12" too.
Return: mid

Enquiry: Input CNC(=O)NC1CCC2c3cc(C(=O)Nc4ccc(OC(F)(F)Cl)cc4)cc(-c4ccn[nH]4)c3N(C(C)C)C12 (stereo not drawn)
Return: mid

Enquiry: Please do the same for CC(=O)NC1CCC2c3cc(C(=O)Nc4ccc(OC(F)(F)Cl)cc4)cc(-c4cc[nH]n4)c3N(CC(F)(F)F)C12 (stereo not drawn) as well.
Return: high

---

target: BaF3 (T315I mutant) (Homo sapiens, UniProt P00519, T315I, cells depend on it); assay: WST (CCK-8) anti-proliferative assay, BaF3 T315I mutant; settings: read-out: BaF3 (T315I mutant), 72 h treatment, CCK-8 readout OD 450 nm
Can you tell me log10 GI50 for the items I'm about to list?
For clarity, the numbers are log10 values of GI50 expressed in nM.

Enquiry: Please give the measured log10 GI50 for this compound: CC(C)N1c2c(-c3ccn[nH]3)cc(C(=O)Nc3ccc(OC(F)(F)Cl)cc3)cc2C2CCC(NS(=O)(=O)N(C)C)C21 (stereo not drawn)
Return: 2.33

Enquiry: Another compound to look at: CC(C)N1c2c(-c3ccn[nH]3)cc(C(=O)Nc3ccc(OC(F)(F)Cl)cc3)cc2C2CCC(NS(=O)(=O)C3CC3)C21 (stereo not drawn)
Return: 2.06

Enquiry: Queued: CC(=O)NC1CCC2c3cc(C(=O)Nc4ccc(OC(F)(F)Cl)cc4)cc(-c4ccn[nH]4)c3N(CC(C)(C)C)C12 (stereo not drawn)
Return: 1.32

Enquiry: And then CC(=O)NC1CCC2c3cc(C(=O)Nc4ccc(OC(F)(F)Cl)cc4)cc(-c4ccn[nH]4)c3N(C3CC3)C12 (stereo not drawn) , what is it?
Return: 1.61

Enquiry: CC(C)N1c2c(-c3ccn[nH]3)cc(C(=O)Nc3ccc(OC(F)(F)Cl)cc3)cc2C2CCC(O)C21 (stereo not drawn) ?
Return: 2.28

Enquiry: Also check CC(=O)N(C)C1CCC2c3cc(C(=O)Nc4ccc(OC(F)(F)Cl)cc4)cc(-c4ccn[nH]4)c3N(C(C)C)C21 (stereo not drawn)
Return: 2.09

---

biological target: BaF3(WT) (Homo sapiens, UniProt P00519); experiment: WST (CCK-8) anti-proliferative assay, BaF3 WT; details: read-out: BaF3(WT); BaF3 WT cells, 72 h treatment, CCK-8 readout OD 450 nm
Please respond with reported log10(GI50) for every item in the list.
All values: base-10 log of GI50 in nM.

Enquiry: Fill in the blank: the reported log10(GI50) of CC(C)N1c2c(-c3ccn[nH]3)cc(C(=O)Nc3ccc(OC(F)(F)Cl)cc3)cc2C2CCC(N3CCCC3=O)C21 (centres unmarked) [Compound 35] is ____.
Return: 1.08

Enquiry: And CC(=O)NC1CCC2c3cc(C(=O)Nc4ccc(OC(F)(F)Cl)cc4)cc(-c4ccn[nH]4)c3N(C(C)C)C12 (centres unmarked) [Compound 4] ?
Return: 1.15

Enquiry: Follow-up item: CC(C)N1c2c(-c3ccn[nH]3)cc(C(=O)Nc3ccc(OC(F)(F)Cl)cc3)cc2C2CCN(CC(F)(F)F)CC21 (centres unmarked) [Compound 41]
Return: 2.08

Enquiry: Proceed to CC(C)N1c2c(-c3ccn[nH]3)cc(C(=O)Nc3ccc(OC(F)(F)Cl)cc3)cc2C2CCC(NC(=O)C3CCN(C)CC3)C21 (centres unmarked) [Compound 32]
Return: 2.69

Enquiry: // query: CC(C)N1c2c(-c3ccn[nH]3)cc(C(=O)Nc3ccc(OC(F)(F)Cl)cc3)cc2C2CCC(NC(=O)N3CCN(C)CC3)C21 (centres unmarked) [Compound 14]
Return: 1.61

Enquiry: Please give the result for CC(=O)N[C@@H]1CC[C@H]2c3cc(C(=O)Nc4ccc(OC(F)(F)Cl)cc4)cc(-c4cc(F)cc(C#N)c4)c3N(C(C)C)[C@@H]12 [Compound 48-A] too.
Return: 0.30

Enquiry: Repeat with CC(C)N1c2c(-c3ccn[nH]3)cc(C(=O)Nc3ccc(OC(F)(F)Cl)cc3)cc2C2CCC(NS(=O)(=O)N(C)C)C21 (centres unmarked) [Compound 12]
Return: 1.00

Enquiry: How about CC(=O)N[C@@H]1CC[C@H]2c3cc(C(=O)Nc4ccc(OC(F)(F)Cl)cc4)cc(-c4ccncn4)c3N(CC(C)(C)C)[C@@H]12 [Compound 57-A] ?
Return: 1.99
